Biological target: T1, human serum albumin (human, UniProt P02768 25-609)
T1 construct: also called HSA
Assay: SPR, single cycle kinetics, pH 5.5
Label True when Kd is strictly below 8 nM; at or above that, label False.

Study these solved cases before continuing.
BINDER	QUALITATIVE LABEL
R11-H5 (VHH) VHH: QVQLVESGGGLVQPGGSLRLSCAGPGFLLRSNTMGWYRQAPGKERELVAFIRPSGLTNYNDAVQGRFTISRDNSKNTLYLQMNSLRAEDTAVYYCHTRPPFQRDSWGQGTLVTVSS	False
R11-H6 (VHH) VHH: QVQLVESGGGLVQPGGSLRLSCAGPGFLLRSNTMGWYRQAPGKERELVAFIRPSGLTNYNDAVQGRFTISRDNAKNTVYLQMNSLRAEDTAVYYCHTRPPFQRDSWGQGTLVTVSS	False
M79-H2 (VHH) VHH: EVQLVESGGGLVQPGGSLRLSCAASGSTFSSSSVGWYRQAPGKGLELVSAITSGGSTNTADSVKGRFTISRDNSKNTLYLQMNSLRAEDTAVYYCNVAGRNWVPISRYSPGPYWGQGTLVTVSS	True

Exercise: Decide: Kd of R28 sdAb (VHH, also called R28 VHH) VHH: QVQLVESGGGLVQAGGSLRLSCVASGRTFIAYAMGWFRQAPGKEREFVAAITNFAGGTTYYADSVKGRFTISRDNAKTTVYLQMNSLKPEDTALYYCAADRSAQTMRQVRPVLPYWGQGTQVTVSS strictly below 8 nM?
Solution: True

Exercise: Decide: Kd of M75 sdAb (VHH, also called M75 VHH) VHH: QVQLVESGGGFVQAGGSLRLSCAASGRTFDNYVMAWFRQAPGKEREFVASISGSGSITNYANSVKDRFTISRDSAKNAIYLQMNSLKPEDTALYYCAAGSRRTYYREPKFYPSWGQGTQVTVSS strictly below 8 nM?
Solution: False

Exercise: Decide: Kd of Rh34-H4 (VHH) VHH: QVQLVESGGGLVQPGGSLRLSCAASGRTISLYAVGWFRRAPGKEREFVAAISWTDSSTYYADSVKGRFTISRDNSKNTLYLQMNSLRAEDTAVYYCAADVSIRGLQKYEYDYWGQGTLVTVSS strictly below 8 nM?
Solution: False

Exercise: Decide: Kd of R28-H5 (VHH) VHH: QVQLVESGGGLVQPGGSLRLSCAASGRTFIAYAMGWFRQAPGKEREFVAAITNFAGGTTYYADSVKGRFTISRDNAKTTVYLQMNSLRAEDTAVYYCAADRSAQTMRQVRPVLPYWGQGTLVTVSS strictly below 8 nM?
Solution: True

Exercise: Decide: Kd of R11 sdAb (VHH, also called R11 VHH) VHH: QVKLEESGGGLVQAGGSLRLSCVGPGFLLRSNTMGWYRQAPGKERELVAFIRPSGLTNYNDAVQGRFTISRDNAKNTVYLQMNALKPEDTAVYYCHTRPPFQRDSWGQGTQVTVSS strictly below 8 nM?
Solution: False

Exercise: Decide: Kd of M79-H4 (VHH) VHH: QVQLVESGGGLVQPGGSLRLSCAASGSTFSSSSVGWYRQAPGQQRELVAAITSGGSTNTADSVKGRFTISRDNSKNTLYLQMNSLRAEDTAVYYCNVAGRNWVPISRYSPGPYWGQGTLVTVSS strictly below 8 nM?
Solution: False

Exercise: Decide: Kd of Rh46-H3 (VHH) VHH: QVQLVESGGGLVQPGGSLRLSCAASTRTFSSYIMGWFRQAPGKERELVAAISWSGRMTHYADSVKGRFTISRDNSKNTLYLQMNSLRAEDTAVYYCAADRTTAWGAPRSQYDSWGQGTLVTVSS strictly below 8 nM?
Solution: False

Exercise: Decide: Kd of R28-H2 (VHH) VHH: EVQLVESGGGLVQPGGSLRLSCAASGRTFIAYAMGWFRQAPGKEREFVSAITNFAGGTTYYADSVKGRFTISRDNSKNTLYLQMNSLRAEDTAVYYCAADRSAQTMRQVRPVLPYWGQGTLVTVSS strictly below 8 nM?
Solution: True

Exercise: Decide: Kd of Rh34 sdAb (VHH, also called Rh34 VHH) VHH: QVKLEESGGGLVQAGGSLRLSCAASGRTISLYAVGWFRRAPGKEREFVAAISWTDSSTYYADSVKGRFTISRDNAKNTVYLGMNSLNPEDTAVYYCAADVSIRGLQKYEYDYWGQGTQVTVSS strictly below 8 nM?
Solution: False

Exercise: Decide: Kd of Rh46-H5 (VHH) VHH: QVQLVESGGGLVQPGGSLRLSCAASTRTFSSYIMGWFRQAPGKERELVAAISWSGRMTHYADSVKGRFTISRDNAKNTVYLQMNSLRAEDTAIYSCAADRTTAWGAPRSQYDSWGQGTLVTVSS strictly below 8 nM?
Solution: False

Exercise: Decide: Kd of H18-H5 (VHH) VHH: QVQLVESGGGLVQPGGSLRLSCAASGSIESINRMAWYRQAPGQQREFVARISKGGSTNYPDSVKGRFTISRDNAKNTVYLQMNSLRAEDTAVYYCAAGPVWEQFWGQGTLVTVSS strictly below 8 nM?
Solution: False

Exercise: Decide: Kd of Rh34-H1 (VHH) VHH: EVQLVESGGGLVQPGGSLRLSCAASGRTISLYAVGWFRQAPGKGLEFVSAISWTDSSTYYADSVKGRFTISRDNSKNTLYLQMNSLRAEDTAVYYCAADVSIRGLQKYEYDYWGQGTLVTVSS strictly below 8 nM?
Solution: False
